Target: T1, human GIP receptor (human, UniProt P48546 22-466)
T1 sequence (looked up): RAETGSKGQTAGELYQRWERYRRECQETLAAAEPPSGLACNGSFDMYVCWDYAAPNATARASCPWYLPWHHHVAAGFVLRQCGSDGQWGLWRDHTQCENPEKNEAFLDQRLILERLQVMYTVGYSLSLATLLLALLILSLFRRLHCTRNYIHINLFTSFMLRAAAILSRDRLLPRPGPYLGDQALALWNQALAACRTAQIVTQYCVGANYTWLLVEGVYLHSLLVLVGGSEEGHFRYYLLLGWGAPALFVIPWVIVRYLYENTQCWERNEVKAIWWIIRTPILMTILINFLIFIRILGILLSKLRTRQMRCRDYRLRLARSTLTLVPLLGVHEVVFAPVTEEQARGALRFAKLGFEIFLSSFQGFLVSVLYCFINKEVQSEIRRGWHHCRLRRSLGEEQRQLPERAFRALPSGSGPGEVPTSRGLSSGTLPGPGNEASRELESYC
Experiment: cell-based or functional assay
Bridges are numbered along the chain shown (N, C = ends). Where no end group is shown, it is not given here. [ ]: non-standard residue; d: D form. Aib = CC(C)(N)C(=O)O
Please go through the items and note down their in vitro Activity Compared to Native Peptide (%), vs GIP.
Please reply with the bare figure in % and do not write the unit itself.

Enquiry: Tell us which in vitro Activity Compared to Native Peptide (%), vs GIP value is on record for Y[Aib]QGTFTSDYSKYLDECRAKDFVQWLLDHHPSSGQPPPS (bridge 16-20; not fully specified (C-terminus)) [triple agonist of SEQ ID NO: 66]
Return: 17.2

Enquiry: // Input: H[Aib]QGTFTSDYSKYLDEKACKEFVQWLLAQ (bridge 16-20; not fully specified (C-terminus)) [triple agonist of SEQ ID NO: 31] . Output its in vitro Activity Compared to Native Peptide (%), vs GIP only.
Return: 2.4

Enquiry: Identify the reported in vitro Activity Compared to Native Peptide (%), vs GIP for the following entry. H[Aib]QGTFTSDYSKYLDEKAQKEFVQWLLDTC (bridge 16-20; not fully specified (C-terminus)) [triple agonist of SEQ ID NO: 30]
Return: 0.8
